So I've got a bunch of compounds here, and I need their pEC50 values.
# target system: Peroxisome proliferator-activated receptor delta (Homo sapiens, UniProt Q03181)
# Sequence (Q03181 whole entry, the tested form may be a part): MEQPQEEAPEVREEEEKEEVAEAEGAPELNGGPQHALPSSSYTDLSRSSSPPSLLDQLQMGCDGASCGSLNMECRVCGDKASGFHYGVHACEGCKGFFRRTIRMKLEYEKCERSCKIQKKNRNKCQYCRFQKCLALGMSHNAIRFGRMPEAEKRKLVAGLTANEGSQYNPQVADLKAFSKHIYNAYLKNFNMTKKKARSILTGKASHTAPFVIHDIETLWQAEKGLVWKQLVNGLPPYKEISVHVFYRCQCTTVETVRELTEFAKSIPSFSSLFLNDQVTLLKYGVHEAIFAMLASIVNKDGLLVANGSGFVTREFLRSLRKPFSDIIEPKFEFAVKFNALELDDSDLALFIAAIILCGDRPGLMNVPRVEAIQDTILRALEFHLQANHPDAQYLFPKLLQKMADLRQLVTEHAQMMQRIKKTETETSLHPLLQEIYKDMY
# protocol description: Transactivation of Gal4-tagged PPARdelta ligand binding domain (unknown origin) expressed in COS7 cells measured after overnight incubation by luciferase reporter gene assay
Numbers only, as −log10 of the molar value.

Consider the worked cases shown below.
{"columns": ["smiles data", "target system", "observed result"],
 "data": [
  ["O=C(O)c1cccc(NC(=O)c2cc(Cl)ccc2NC(=O)c2ccc(C(F)(F)F)cc2)c1", "Peroxisome proliferator-activated receptor delta (Homo sapiens, UniProt Q03181)", 5.20],
  ["O=C(O)Cc1cccc(NC(=O)c2ccccc2NC(=O)c2ccc3ccccc3c2)c1", "Peroxisome proliferator-activated receptor delta (Homo sapiens, UniProt Q03181)", 5.89],
  ["O=C(O)Cc1cccc(NC(=O)c2ccccc2NC(=O)c2ccc(SC(F)(F)F)cc2)c1", "Peroxisome proliferator-activated receptor delta (Homo sapiens, UniProt Q03181)", 5.64]
]}

Need pEC50 for each of these compounds.
1. O=C(O)Cc1cccc(NC(=O)c2ccccc2NC(=O)c2ccc(-c3ccccc3)cc2)c1
2. O=C(O)c1cccc(NC(=O)c2ccccc2NC(=O)c2ccc(C(F)(F)F)cc2)c1

Response:
1. 5.19
2. 5.49

Where do these numbers come from? They come from ChEMBL document CHEMBL3393039.
